Hi there, I'd appreciate the recorded T/C for every entry that follows.
test system: L1210 leukemia ip in BDF1 mice, survival T/C; test: NCI In Vivo Anticancer Drug Screen. Data for tumor model L1210 Leukemia (intraperitoneal) in B6D2F1 (BDF1) mice; conditions: endpoint: mean survival time; dose: 200.0 mg/kg/injection; schedule: Q01DX009 (ip); vehicle: Klucel (hydroxypropylcellulose) (HPC); higher = longer survival
Toxic doses and inconclusive results are not listed.

INSERT INTO measurements (compound, recorded_result) VALUES
  ('COc1ccc(C(=O)c2ccc(C)cc2)cc1', '105 % of control');

Your task in this section: give T/C for each listed record.
1. Cc1cccc(NC(=O)COc2ccc(Cl)cc2)c1C
2. COc1ccccc1NC(=O)Nc1ccc(SC)cc1
3. O=c1[nH][nH]c(=O)c2[nH]cnc12
4. NS(=O)(=O)c1ccc(S(=O)(=O)NC2CCCCC2)cc1
5. O=S(=O)(OCC(F)(F)F)c1ccccc1
6. CCCCCCCCCCCCNC(=O)Nc1ccc(C)cc1C
7. CNC(=O)Nc1ccccc1C(=O)OC

Reply |
94 % of control
103 % of control
103 % of control
101 % of control
101 % of control
94 % of control
98 % of control

Your task in this section: give T/C for each listed record.
1. CSc1ccc(OC(=O)Nc2cc(C)ccc2C)cc1
2. O=C(O)C1CCC(CC23CC4CC(CC(C4)C2)C3)CC1 (stereo not drawn)
3. COc1cc2ccc(Cc3nccc4cc(OC)c(OC)cc34)cc2cc1OC
4. COc1ccc(CC(=S)N2CCOCC2)cc1
5. COC(=O)CC(O)(CC(=O)OC)C(=O)OC
6. Brc1csc2ncccc12
7. Ic1ncnc2nc[nH]c12
8. Cc1[nH]c(N)nc(=S)c1CCCOc1ccc([N+](=O)[O-])cc1

Reply |
107 % of control
103 % of control
106 % of control
102 % of control
104 % of control
96 % of control
119 % of control
102 % of control

Your task in this section: give T/C for each listed record.
1. CCOC(=O)c1cc([N+](=O)[O-])oc1C
2. CC(=O)Nc1cccc2ccc([N+](=O)[O-])cc12
3. N#CCc1[nH]nc(N)c1C#N
4. Oc1ccc(/C=N\Nc2ccccn2)c(O)c1
5. O=C(Nc1cccc(F)c1)Nc1ccc2ccccc2c1
6. CC(C)OC(=S)Nc1ccccc1
7. O=C(N/N=C/c1ccc(Cl)cc1)C(O)c1ccccc1 (stereo not drawn)
8. CCOC(=O)c1c(Cl)c(Cl)c(Cl)c(Cl)c1C(=O)OCC

Reply |
1: 102 % of control; 2: 98 % of control; 3: 102 % of control; 4: 91 % of control; 5: 97 % of control; 6: 98 % of control; 7: 87 % of control; 8: 104 % of control

Your task in this section: give T/C for each listed record.
1. Cc1ccc(C2OC2(C(=O)c2ccccc2)c2ccccc2)cc1 (stereo not drawn)
2. O=C(NNC(=O)OCc1ccccc1)OCc1ccccc1
3. BrC(Br)c1ccc2ccccc2n1
4. CCOc1ccc(NC(=O)Oc2ccc(SC)c(C)c2)cc1
5. CCCCOS(=O)(=O)c1ccc(N)cc1
6. ClCCCC#Cc1ccccc1

Reply |
1: 108 % of control; 2: 113 % of control; 3: 94 % of control; 4: 91 % of control; 5: 93 % of control; 6: 110 % of control

###

system: L1210 leukemia ip in BDF1 mice, survival T/C; assay: NCI In Vivo Anticancer Drug Screen. Data for tumor model L1210 Leukemia (intraperitoneal) in B6D2F1 (BDF1) mice; details: endpoint: mean survival time; dose: 12.5 mg/kg/injection; schedule: Q01DX009 (ip); vehicle: saline; higher = longer survival
Toxic doses and inconclusive results are not listed.
Hi there, I'd appreciate the recorded T/C for every entry that follows.

For orientation, consider the following solved cases.
INSERT INTO assay_data (compound, metric, recorded_result) VALUES
  ('COc1ccc(Oc2cc(CC3c4cc(OC)c(OC)cc4CCN3C)c([N+](=O)[O-])cc2OC)cc1OC (stereo not drawn)', 'T/C', '93 % of control'),
  ('O=[N+]([O-])/C=C/c1ccc([N+](=O)[O-])cc1Cl', 'T/C', '101 % of control'),
  ('CCOC(=O)NCC[N+](C)(C)C', 'T/C', '100 % of control'),
  ('COc1ccc2nccc(/C=C/CC3CCN(C(C)=O)CC3)c2c1', 'T/C', '98 % of control'),
  ('CCCCCCCCCCCCCCC[N+](C)(C)C', 'T/C', '102 % of control');

Your task in this section: give T/C for each listed record.
1. CC1CN(c2ccc([N+](=O)[O-])cc2)C(C)CN1 (stereo not drawn)
2. C=CC[Se]c1ncnc2c1c(C#N)cn2C1OC(CO)C(O)C1O (stereo not drawn)
3. FCc1nc2nc(Cl)c(Cl)nc2[nH]1

Reply |
1. 91 % of control
2. 107 % of control
3. 100 % of control

###

Hi there, I'd appreciate the recorded T/C for every entry that follows.
tested on: L1210 leukemia ip in BDF1 mice, survival T/C; assay: NCI In Vivo Anticancer Drug Screen. Data for tumor model L1210 Leukemia (intraperitoneal) in B6D2F1 (BDF1) mice; details: endpoint: mean survival time; dose: 300.0 mg/kg/injection; schedule: Q01DX001 (ip); vehicle: saline; higher = longer survival
Inconclusive results and toxic doses are left out.

For orientation, consider the following solved cases.
INSERT INTO assay_data (structure_notation, metric, recorded_result) VALUES
  ('O=[N+]([O-])c1ccc(Oc2cc(Cl)c(Cl)cc2Cl)c(Cl)c1', 'T/C', '87 % of control'),
  ('CCOC(=O)c1c(N)cc(=O)[nH]c1O', 'T/C', '95 % of control'),
  ('COc1cc2ccnc(-c3onc4cc(OC)c(OC)cc34)c2cc1OC', 'T/C', '98 % of control'),
  ('CCCCCC(=O)NNC(=O)CCCCC', 'T/C', '94 % of control'),
  ('CCC(O)(CC)C(C)C', 'T/C', '96 % of control');

Ask | Please state recorded T/C (tested on L1210 leukemia ip in BDF1 mice, survival T/C) of COc1ccc([N+](=O)[O-])cc1C(=O)O
Reply | 104 % of control

###

system: L1210 leukemia ip in BDF1 mice, survival T/C; assay: NCI In Vivo Anticancer Drug Screen. Data for tumor model L1210 Leukemia (intraperitoneal) in B6D2F1 (BDF1) mice; settings: endpoint: mean survival time; dose: 12.5 mg/kg/injection; schedule: Q01DX009 (ip); vehicle: Klucel (hydroxypropylcellulose) (HPC); higher = longer survival
Inconclusive results and toxic doses are left out.
metric: T/C

INSERT INTO measurements (compound, experimental_system, metric, recorded_result) VALUES
  ('CC(=O)c1csc2ccccc12', 'L1210 leukemia ip in BDF1 mice, survival T/C', 'T/C', '106 % of control');

Your task in this section: give T/C for each listed record.
1. COc1cc(Cl)ccc1NC(=O)Oc1ccccc1C(N)=O
2. Cc1cc(CCl)c(C)c(Br)c1C
3. OC1CC2c3ccccc3C1c1cccc[n+]12 (stereo not given)
4. CC[N+](CC)(CC)Cc1ccccc1

Reply |
1. 91 % of control
2. 90 % of control
3. 98 % of control
4. 107 % of control

###

Hi there, I'd appreciate the recorded T/C for every entry that follows.
tested on: L1210 leukemia ip in BDF1 mice, survival T/C; assay: NCI In Vivo Anticancer Drug Screen. Data for tumor model L1210 Leukemia (intraperitoneal) in B6D2F1 (BDF1) mice; settings: endpoint: mean survival time; dose: 75.0 mg/kg/injection; schedule: Q01DX001 (ip); vehicle: saline; higher = longer survival
Toxic doses and inconclusive results are not listed.

For orientation, consider the following solved cases.
INSERT INTO results (structure_notation, recorded_result) VALUES
  ('O=[N+]([O-])c1ccc(Oc2cc(Cl)c(Cl)cc2Cl)c(Cl)c1', '87 % of control'),
  ('CCOC(=O)Nc1cc2[nH]cnc2c(NC(=O)OCC)n1', '95 % of control');

Your task in this section: give T/C for each listed record.
1. CCOC(=O)c1c(N)cc(=O)[nH]c1O
2. CCOC(=O)c1ccc2ccccc2n1
3. CN1CCC(SC(=O)C(O)(c2ccccc2)c2ccccc2)CC1
4. CCC(CC)C[N+](C)(C)C
5. O=C(NOCc1cscn1)NC1CCCCC1

Reply |
["101 % of control", "109 % of control", "94 % of control", "95 % of control", "98 % of control"]

Your task in this section: give T/C for each listed record.
1. NCC(=O)Oc1c(Cl)c(Cl)c(Cl)c(Cl)c1Cl
2. CCCCCCCCCCCCOCCC(=O)O
3. COc1cccc(N=C(N)N=C(N)N)c1

Reply |
1: 104 % of control; 2: 100 % of control; 3: 101 % of control
